- Test system: NOMO1
- test.name: cell viability relative to DMSO control; higher = less cytotoxic
- test.conditions: RPMI 5 mM glucose + 10% FBS; 48 h; 0.19 µM
Measured cell viability, listed per entry.

smiles.string	experimental.system	uom	cell viability
Cc1cc2c(F)c(Oc3ncnn4cc(OC[C@@H](C)O)c(C)c34)ccc2[nH]1	NOMO1	%	98.1
COc1ccc(-c2nc(N3CCOCC3)c3sc(CN(C)c4ncc(C(=O)NO)cn4)cc3n2)cn1	NOMO1	%	8.1
CN(C)C1=CC=C(C=C1)C(C2=CC=C(C=C2)N(C)C)=C/3\C=C/C(/C=C3)=[N+](C)C	NOMO1	%	27.2
CNc1nccc(-c2cccnc2Oc2cc(C(=O)Nc3cccc(C(F)(F)F)c3)ccc2C)n1	NOMO1	%	133

Source: the supplement of paper PMC11451515
